All values here come from ChEMBL document CHEMBL5214882.

pIC50: −log10 of the molar value.
For UniProt Q9Y4P1, measured pIC50 is reported for the entries below.
Sequence (Q9Y4P1 whole entry): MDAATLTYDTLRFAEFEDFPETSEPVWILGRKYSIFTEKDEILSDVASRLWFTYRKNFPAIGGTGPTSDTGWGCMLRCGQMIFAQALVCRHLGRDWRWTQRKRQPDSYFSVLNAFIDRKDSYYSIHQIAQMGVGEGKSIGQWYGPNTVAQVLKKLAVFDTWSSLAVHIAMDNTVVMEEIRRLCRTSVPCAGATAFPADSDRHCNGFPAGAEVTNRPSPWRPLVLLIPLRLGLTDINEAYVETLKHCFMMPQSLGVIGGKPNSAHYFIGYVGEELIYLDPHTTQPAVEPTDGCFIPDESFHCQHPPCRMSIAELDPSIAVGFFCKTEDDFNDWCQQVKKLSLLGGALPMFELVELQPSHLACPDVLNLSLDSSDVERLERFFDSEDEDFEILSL
readoutName: pIC50

> print(dat)
                       smilesrepresentation  readoutname  readoutnumber
1  O=C(N[C@@H](Cc1ccccc1)C(=O)CCl)OCc1ccccc1        pIC50           5.48
2  Cc1cc(O)c2c(=O)c3c(O)cc(O)c4c5c(O)cc(O)c6c(=O)c7c(O)cc(C)c8c1c2c(c34)c(c78)c65        pIC50           5.05
